# pEC50 values compiled below
Test system: HBV
Experiment: Anti-HBV activity in vitro in HepG2.2.15 cells (extracellular HBV DNA by qPCR)
Format: cell-based, Hepatitis B virus
Settings: Hepatitis B virus; HepG2.2.15 cells; in-house data; read-out: EC50
pEC50: −log10 of the molar value.

[
  {
    "COMPOUND": "CCOC(=O)C1=C(CN2CCOC[C@H]2C(=O)O)NC(c2nccs2)=N[C@H]1c1ccc(F)c(F)c1C [Example 96]",
    "pEC50": 9.22
  },
  {
    "COMPOUND": "CC(C)OC(=O)C1=C(CN2CCOC[C@H]2C(=O)O)NC(c2nccs2)=N[C@H]1c1cccc(F)c1Cl [Example 101]",
    "pEC50": 7.85
  },
  {
    "COMPOUND": "COC(=O)C1=C(CN2C[C@H](C(=O)O)CC(F)(F)C2)NC(c2nccs2)=N[C@H]1c1ccc(F)cc1Cl [Example 14]",
    "pEC50": 7.39
  },
  {
    "COMPOUND": "COC(=O)C1=C(CN2CCOC[C@H]2C(=O)O)NC(c2nccs2)=N[C@H]1c1ccc(Cl)cc1F [Example 75]",
    "pEC50": 7.74
  },
  {
    "COMPOUND": "COC(=O)C1=C(CN2CCOC[C@H]2C(=O)O)NC(c2nccs2)=N[C@H]1c1ccc(F)cc1Br [Example 81]",
    "pEC50": 8.22
  },
  {
    "COMPOUND": "COC(=O)C1=C(CN2CCO[C@H](C(C)C)[C@H]2C(=O)O)NC(c2nccs2)=N[C@H]1c1ccc(F)cc1Cl [Example 120]",
    "pEC50": 8.32
  },
  {
    "COMPOUND": "COC(=O)C1=C(CN2CC(F)(F)C[C@H]2C(=O)O)NC(c2ncc(F)cc2F)=N[C@H]1c1ccc(F)cc1Cl [Example 4]",
    "pEC50": 8.82
  },
  {
    "COMPOUND": "CCOC(=O)C1=C(CN2CCOC[C@H]2C(=O)O)NC(c2nccs2)=N[C@H]1c1ccc(F)c(F)c1Cl [Example 60]",
    "pEC50": 9.22
  },
  {
    "COMPOUND": "COC(=O)C1=C(CN2CC(F)(F)C[C@H]2C(=O)O)NC(c2nccn2C)=N[C@H]1c1ccc(F)cc1Cl [Example 32]",
    "pEC50": 7.89
  },
  {
    "COMPOUND": "COC(=O)C1=C(CN2CCOC[C@@]2(C)C(=O)O)NC(c2nccs2)=N[C@H]1c1ccc(F)cc1Cl [Example 121]",
    "pEC50": 7.70
  },
  {
    "COMPOUND": "CC(C)OC(=O)C1=C(CN2CCOC[C@H]2C(=O)O)NC(c2nccs2)=N[C@H]1c1ccc(F)cc1Cl [Example 98]",
    "pEC50": 7.77
  },
  {
    "COMPOUND": "COC(=O)C1=C(CN2CC(F)(F)C[C@H]2C(=O)O)NC(c2nc(SC)cs2)=N[C@H]1c1ccc(F)cc1Cl [Example 62]",
    "pEC50": 7.85
  },
  {
    "COMPOUND": "COC(=O)C1=C(CN2CC(F)(F)C[C@H]2C(=O)O)NC(c2ncoc2C)=N[C@H]1c1ccc(F)cc1Cl [Example 102]",
    "pEC50": 8.05
  },
  {
    "COMPOUND": "CCOC(=O)C1=C(CN2CCOC[C@H]2C(=O)O)NC(c2nccs2)=N[C@H]1c1cc(F)c(F)c(F)c1 [Example 43]",
    "pEC50": 7.74
  }
]
